target: T1, Human PD-L1 Dimer (human, UniProt Q9NZQ7 19-239); test: SPR (Biacore), mAb captured, 37C
T1 construct: also called hPD-L1 dimer; hPD-L1-hFc
T1 sequence (Q9NZQ7 19-239): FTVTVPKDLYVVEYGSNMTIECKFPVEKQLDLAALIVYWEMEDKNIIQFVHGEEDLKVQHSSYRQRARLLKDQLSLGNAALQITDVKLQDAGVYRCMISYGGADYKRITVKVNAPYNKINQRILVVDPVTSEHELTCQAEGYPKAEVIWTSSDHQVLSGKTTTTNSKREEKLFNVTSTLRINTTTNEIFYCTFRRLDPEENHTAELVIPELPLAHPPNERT
readout-type: koff (s⁻¹)
Give bare numbers, in s⁻¹.

// known answers, use as guide
binder: H1H9336P (antibody, human IgG1, V domains shown) VH: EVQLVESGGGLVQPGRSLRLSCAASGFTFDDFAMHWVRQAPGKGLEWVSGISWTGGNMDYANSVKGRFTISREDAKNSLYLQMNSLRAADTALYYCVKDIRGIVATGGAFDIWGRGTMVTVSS VL: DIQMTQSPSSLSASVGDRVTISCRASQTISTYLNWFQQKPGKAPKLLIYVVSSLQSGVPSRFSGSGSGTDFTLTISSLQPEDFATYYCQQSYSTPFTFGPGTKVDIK
output-unit: s⁻¹
measured-number: 8.31e-05

binder: H2aM8323N (antibody, mouse IgG2, V domains shown, also called H2M8323N) VH: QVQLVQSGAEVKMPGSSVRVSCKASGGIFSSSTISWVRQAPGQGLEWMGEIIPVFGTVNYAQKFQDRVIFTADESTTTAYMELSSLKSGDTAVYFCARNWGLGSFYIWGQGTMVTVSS VL: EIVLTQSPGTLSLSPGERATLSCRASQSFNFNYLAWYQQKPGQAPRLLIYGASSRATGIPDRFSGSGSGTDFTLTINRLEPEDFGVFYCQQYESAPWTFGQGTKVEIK
output-unit: s⁻¹
measured-number: 0.000121

binder: H1H9329P (antibody, human IgG1, V domains shown) VH: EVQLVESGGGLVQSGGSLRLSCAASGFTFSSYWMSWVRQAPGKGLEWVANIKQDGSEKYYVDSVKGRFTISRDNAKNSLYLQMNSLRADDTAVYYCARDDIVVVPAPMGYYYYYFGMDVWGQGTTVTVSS VL: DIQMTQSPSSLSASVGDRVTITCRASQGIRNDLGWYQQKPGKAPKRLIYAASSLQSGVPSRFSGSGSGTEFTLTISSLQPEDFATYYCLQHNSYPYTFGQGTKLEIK
output-unit: s⁻¹
measured-number: 0.00267

// input: 3 binders below; output: koff for each
1. H2aM8317N (antibody, mouse IgG2, V domains shown, also called H2M8317N) VH: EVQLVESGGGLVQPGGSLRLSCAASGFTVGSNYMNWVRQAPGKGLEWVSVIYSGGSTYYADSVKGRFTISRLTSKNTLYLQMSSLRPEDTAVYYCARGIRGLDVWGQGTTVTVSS VL: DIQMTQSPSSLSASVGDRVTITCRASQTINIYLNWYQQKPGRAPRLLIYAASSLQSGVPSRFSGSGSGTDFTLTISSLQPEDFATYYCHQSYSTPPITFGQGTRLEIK
2. H2aM8310N (antibody, mouse IgG2, V domains shown, also called H2M8310N) VH: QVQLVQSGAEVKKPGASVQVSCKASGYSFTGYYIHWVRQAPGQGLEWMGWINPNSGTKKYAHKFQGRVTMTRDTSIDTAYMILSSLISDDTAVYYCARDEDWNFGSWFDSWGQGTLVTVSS VL: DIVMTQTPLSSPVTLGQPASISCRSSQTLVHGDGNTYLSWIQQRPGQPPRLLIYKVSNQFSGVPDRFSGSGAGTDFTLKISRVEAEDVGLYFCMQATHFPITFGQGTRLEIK
3. H2aM8321N (antibody, mouse IgG2, V domains shown, also called H2M8321N) VH: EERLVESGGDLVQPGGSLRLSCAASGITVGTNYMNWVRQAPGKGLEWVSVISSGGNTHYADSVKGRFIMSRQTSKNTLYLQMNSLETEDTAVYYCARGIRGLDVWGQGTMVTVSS VL: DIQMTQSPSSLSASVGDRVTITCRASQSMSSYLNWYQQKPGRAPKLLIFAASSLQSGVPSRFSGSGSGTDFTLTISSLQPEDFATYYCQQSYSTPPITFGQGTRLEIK

Key:
1: 0.000657; 2: 0.000124; 3: 0.000269

Exercise: Consider the binder shown here: H2aM8314N (antibody, mouse IgG2, V domains shown, also called H2M8314N) VH: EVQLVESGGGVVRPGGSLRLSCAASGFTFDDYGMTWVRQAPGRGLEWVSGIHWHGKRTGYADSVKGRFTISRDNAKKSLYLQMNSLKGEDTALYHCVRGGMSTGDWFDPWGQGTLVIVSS VL: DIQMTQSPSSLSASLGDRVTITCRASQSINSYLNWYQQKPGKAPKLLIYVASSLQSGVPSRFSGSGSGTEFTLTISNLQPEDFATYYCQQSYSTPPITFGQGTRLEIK What is its recorded koff?
Key: 2.3e-05

Cited source for all entries: patent US20210380702A1
